experimentalTarget: Metabotropic glutamate receptor 7 (Rattus norvegicus, UniProt P35400)
Sequence (P35400 whole entry): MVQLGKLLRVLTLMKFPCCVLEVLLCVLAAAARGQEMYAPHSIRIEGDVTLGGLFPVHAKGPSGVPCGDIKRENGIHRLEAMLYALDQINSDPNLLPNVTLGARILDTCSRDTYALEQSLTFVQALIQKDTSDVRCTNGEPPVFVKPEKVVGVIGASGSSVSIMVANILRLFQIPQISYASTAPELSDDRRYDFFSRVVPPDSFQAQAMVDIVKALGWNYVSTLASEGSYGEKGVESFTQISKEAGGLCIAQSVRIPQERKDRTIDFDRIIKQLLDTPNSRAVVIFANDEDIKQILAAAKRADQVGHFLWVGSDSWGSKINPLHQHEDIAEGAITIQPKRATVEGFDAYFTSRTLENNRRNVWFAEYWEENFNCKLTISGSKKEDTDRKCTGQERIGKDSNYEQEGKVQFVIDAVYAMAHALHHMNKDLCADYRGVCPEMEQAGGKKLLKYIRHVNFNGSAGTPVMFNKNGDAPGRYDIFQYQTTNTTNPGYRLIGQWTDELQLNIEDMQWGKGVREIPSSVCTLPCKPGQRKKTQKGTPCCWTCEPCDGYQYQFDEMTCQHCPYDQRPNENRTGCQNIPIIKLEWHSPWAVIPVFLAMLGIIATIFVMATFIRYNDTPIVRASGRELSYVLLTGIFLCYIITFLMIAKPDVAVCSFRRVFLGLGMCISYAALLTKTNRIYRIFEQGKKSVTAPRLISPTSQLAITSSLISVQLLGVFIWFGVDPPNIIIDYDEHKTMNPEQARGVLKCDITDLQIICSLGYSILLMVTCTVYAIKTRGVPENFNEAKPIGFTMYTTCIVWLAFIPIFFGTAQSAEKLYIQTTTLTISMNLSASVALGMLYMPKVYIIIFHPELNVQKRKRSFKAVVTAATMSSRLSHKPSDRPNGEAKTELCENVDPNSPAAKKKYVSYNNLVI
protocolNotes: Agonist activity at rat mGluR7 expressed in HEK293 cells assessed as induction of inositol phosphate production by HTRF assay
pEC50: −log10 of the molar value.
Entries and their pEC50

For orientation, consider the following solved cases.
INSERT INTO assay_data (molecule, experimentaltarget, observed) VALUES
  ('NC1(C(=O)O)CC1(F)CP(=O)(O)O (racemic; form 1)', 'Metabotropic glutamate receptor 7 (Rattus norvegicus, UniProt P35400)', '< 4.00'),
  ('N[C@@H](CCP(=O)(O)O)C(=O)O', 'Metabotropic glutamate receptor 7 (Rattus norvegicus, UniProt P35400)', 3.37);

Next up:
Lookup result for "N[C@@H](CCC(=O)O)C(=O)O" ; measured pEC50: < 4.00

----------
experimentalTarget: Metabotropic glutamate receptor 8 (Rattus norvegicus, UniProt P70579)
Sequence (P70579 whole entry): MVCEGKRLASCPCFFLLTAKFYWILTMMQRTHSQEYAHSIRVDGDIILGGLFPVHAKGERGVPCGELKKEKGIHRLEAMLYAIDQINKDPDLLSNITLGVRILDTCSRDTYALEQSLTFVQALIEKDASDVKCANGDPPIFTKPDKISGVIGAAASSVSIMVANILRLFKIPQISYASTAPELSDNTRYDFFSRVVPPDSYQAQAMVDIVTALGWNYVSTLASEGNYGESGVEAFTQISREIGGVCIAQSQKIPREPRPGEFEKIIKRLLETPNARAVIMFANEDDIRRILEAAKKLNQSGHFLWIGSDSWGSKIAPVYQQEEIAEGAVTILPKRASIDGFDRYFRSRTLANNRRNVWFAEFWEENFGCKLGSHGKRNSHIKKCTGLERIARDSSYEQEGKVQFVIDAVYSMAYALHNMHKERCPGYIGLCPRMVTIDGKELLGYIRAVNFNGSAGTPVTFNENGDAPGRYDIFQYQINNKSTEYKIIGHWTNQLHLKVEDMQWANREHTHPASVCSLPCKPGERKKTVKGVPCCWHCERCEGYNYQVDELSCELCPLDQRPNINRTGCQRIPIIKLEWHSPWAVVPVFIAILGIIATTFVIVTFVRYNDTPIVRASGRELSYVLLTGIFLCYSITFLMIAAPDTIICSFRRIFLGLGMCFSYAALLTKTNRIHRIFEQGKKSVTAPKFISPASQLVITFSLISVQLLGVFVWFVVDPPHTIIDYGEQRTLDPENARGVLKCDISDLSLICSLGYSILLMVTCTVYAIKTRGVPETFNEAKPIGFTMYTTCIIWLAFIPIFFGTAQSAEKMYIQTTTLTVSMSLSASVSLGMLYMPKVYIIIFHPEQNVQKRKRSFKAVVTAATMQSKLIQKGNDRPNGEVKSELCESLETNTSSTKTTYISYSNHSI
protocolNotes: Agonist activity at rat mGluR8 expressed in HEK293 cells assessed as induction of inositol phosphate production by HTRF assay
readoutLabel: pEC50
Please report pEC50 as the negative decimal logarithm of the molar concentration, giving only the number.

For orientation, consider the following solved cases.
INSERT INTO assay_data (compound, readoutlabel, observed) VALUES
  ('N[C@@H](CCP(=O)(O)O)C(=O)O', 'pEC50', 6.96),
  ('N[C@@H](CCC(=O)O)C(=O)O [GLUTAMIC ACID]', 'pEC50', 4.67);

Next up:
Lookup result for NC1(C(=O)O)CC1(F)CP(=O)(O)O (racemic; form 1) ; measured pEC50: 5.90

----------
experimentalTarget: Metabotropic glutamate receptor 2 (Rattus norvegicus, UniProt P31421)
Sequence (P31421 whole entry): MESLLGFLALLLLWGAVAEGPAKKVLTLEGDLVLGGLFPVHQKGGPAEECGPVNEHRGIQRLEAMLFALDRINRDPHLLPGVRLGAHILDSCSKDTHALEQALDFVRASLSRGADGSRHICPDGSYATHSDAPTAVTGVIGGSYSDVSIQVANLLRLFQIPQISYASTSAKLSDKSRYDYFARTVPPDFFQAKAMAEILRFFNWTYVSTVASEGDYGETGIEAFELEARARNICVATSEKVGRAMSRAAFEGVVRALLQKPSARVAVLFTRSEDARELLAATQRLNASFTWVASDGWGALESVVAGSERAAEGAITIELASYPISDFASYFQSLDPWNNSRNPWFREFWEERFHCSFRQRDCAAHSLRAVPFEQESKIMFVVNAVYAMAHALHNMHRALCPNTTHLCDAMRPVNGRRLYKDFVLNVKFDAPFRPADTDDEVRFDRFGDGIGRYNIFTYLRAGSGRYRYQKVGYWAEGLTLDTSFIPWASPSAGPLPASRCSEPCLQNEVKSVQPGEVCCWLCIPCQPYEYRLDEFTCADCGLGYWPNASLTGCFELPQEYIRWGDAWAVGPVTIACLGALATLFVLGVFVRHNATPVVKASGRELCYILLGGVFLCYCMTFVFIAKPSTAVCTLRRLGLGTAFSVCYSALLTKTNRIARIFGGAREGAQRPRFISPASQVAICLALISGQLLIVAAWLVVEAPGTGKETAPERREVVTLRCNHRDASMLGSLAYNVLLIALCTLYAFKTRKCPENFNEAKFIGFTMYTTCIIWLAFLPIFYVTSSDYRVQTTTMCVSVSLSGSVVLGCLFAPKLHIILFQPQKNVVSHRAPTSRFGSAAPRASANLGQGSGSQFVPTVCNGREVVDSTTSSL
protocolNotes: Agonist activity at rat mGluR2 expressed in HEK293 cells assessed as induction of inositol phosphate production by HTRF assay
pEC50: −log10 of the molar value.
readoutLabel: pEC50

Lookup result for NC1(C(=O)O)CC1(F)CP(=O)(O)O (racemic; form 1) ; measured pEC50: < 4.00

----------
Entries and their log10 EC50
experimentalTarget: Metabotropic glutamate receptor 4 (Rattus norvegicus)
Sequence (P31423 whole entry): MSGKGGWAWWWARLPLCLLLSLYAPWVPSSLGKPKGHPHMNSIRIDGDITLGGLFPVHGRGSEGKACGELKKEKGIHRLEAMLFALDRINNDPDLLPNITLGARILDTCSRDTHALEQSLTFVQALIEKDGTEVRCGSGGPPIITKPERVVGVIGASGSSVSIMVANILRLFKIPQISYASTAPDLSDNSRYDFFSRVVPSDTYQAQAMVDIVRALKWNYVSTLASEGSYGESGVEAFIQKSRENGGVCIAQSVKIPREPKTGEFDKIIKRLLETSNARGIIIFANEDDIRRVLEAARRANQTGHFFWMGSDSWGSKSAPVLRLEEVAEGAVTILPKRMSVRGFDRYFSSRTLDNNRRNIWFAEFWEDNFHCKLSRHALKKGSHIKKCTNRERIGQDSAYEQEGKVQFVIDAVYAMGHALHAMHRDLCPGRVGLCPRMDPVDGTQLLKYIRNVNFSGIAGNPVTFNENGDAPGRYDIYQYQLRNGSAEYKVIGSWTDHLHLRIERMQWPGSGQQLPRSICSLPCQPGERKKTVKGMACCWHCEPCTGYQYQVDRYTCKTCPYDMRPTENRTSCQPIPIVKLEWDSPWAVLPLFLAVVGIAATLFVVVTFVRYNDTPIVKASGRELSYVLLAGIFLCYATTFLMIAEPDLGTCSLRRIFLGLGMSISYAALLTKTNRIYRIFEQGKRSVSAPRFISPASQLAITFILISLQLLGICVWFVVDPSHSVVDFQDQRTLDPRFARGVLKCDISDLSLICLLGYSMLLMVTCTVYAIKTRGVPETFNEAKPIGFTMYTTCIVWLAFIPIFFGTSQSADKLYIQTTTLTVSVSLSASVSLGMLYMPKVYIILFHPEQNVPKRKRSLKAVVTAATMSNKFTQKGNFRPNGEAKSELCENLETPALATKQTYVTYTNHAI
protocolNotes: Agonist activity at rat mGluR4 expressed in HEK293 cells assessed as induction of inositol phosphate production by HTRF assay
Format: functional, cell-based
Record value = log10 of EC50 given in nM.

Lookup result for NC1(C(=O)O)CC1(F)CP(=O)(O)O (stereo in doubt; form 2) ; measured log10 EC50: 5.13

Lookup result for NC1(C(=O)O)CC1(F)CP(=O)(O)O (single isomer, unassigned; form 1) ; measured log10 EC50: 2.08

Lookup result for NC1(C(=O)O)CC1(F)CP(=O)(O)O (stereo in doubt; form 1) ; measured log10 EC50: 4.06

----------
experimentalTarget: Metabotropic glutamate receptor 6 (Rattus norvegicus)
Sequence (P35349 whole entry): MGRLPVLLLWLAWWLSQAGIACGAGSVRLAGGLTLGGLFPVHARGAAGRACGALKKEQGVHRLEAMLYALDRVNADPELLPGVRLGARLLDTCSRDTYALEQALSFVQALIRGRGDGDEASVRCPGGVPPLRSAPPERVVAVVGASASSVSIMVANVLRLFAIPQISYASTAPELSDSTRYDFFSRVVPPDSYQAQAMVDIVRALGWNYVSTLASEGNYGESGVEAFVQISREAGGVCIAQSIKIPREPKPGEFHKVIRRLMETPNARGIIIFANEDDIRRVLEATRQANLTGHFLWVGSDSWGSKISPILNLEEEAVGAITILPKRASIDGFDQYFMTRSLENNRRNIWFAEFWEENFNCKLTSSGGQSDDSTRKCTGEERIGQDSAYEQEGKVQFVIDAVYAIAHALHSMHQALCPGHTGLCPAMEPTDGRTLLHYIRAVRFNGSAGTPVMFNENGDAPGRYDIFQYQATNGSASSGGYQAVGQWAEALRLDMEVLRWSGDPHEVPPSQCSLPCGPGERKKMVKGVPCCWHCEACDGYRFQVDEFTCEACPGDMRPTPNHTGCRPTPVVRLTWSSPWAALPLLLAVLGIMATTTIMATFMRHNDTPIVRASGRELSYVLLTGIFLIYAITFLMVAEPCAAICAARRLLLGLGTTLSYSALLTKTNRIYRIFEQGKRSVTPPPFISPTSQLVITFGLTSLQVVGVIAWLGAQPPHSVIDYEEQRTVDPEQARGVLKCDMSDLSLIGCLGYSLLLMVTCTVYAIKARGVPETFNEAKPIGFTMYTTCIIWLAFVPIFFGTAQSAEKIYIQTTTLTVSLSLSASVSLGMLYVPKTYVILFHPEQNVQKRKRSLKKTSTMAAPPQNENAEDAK
protocolNotes: Agonist activity at rat mGluR6 expressed in HEK293 cells assessed as induction of inositol phosphate production by HTRF assay
Entries and their pEC50
Please report pEC50 as the negative decimal logarithm of the molar concentration, giving only the number.

For orientation, consider the following solved cases.
INSERT INTO measurements (compound, observed) VALUES
  ('NC1(C(=O)O)CC1(F)CP(=O)(O)O (racemic; form 1)', 5.22),
  ('N[C@@H](CCC(=O)O)C(=O)O', 4.09);

Next up:
Lookup result for "N[C@@H](CCP(=O)(O)O)C(=O)O" ; measured pEC50: 5.46
